test: reduced mouse 2C T cell binding to pMHC/ICAM-1 vesicles – MLPCN validation set, flow cytometry, LFA-1/ICAM-1 modulator project, pilot screen (AID 2523); settings: 2C mouse CD8+ T cells, at 7 µM, stronger effect = lower value; measured here: CD8+/vesicle+ event percentage
Property Label: double positive events (%)
API: value field is a number in %; no unit string.

Consider the compound shown here: `CCn1c(N2CCN(CC(=O)c3c(C)n(C)c4ccc(OC)cc34)CC2)nc2c1c(=O)[nH]c(=O)n2C` What is its recorded double positive events? 60

###

test system: anti-desmoglein-3 scFv antibody binding to human DSG3; assay: blockers of pathogenic pemphigus antibody–desmoglein-3 binding – biochemical, validation compound set, bead-based, flow cytometry, pilot screen (AID 588368); settings: Protein G beads, DSG3-Fc, scFv-GFP binding, at 10 µM, stronger effect = lower value;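 note: signal is the median channel fluorescence of bead-bound GFP antibody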
Documented binding (% of control) across a set of compounds
API: value field is a number in %; no unit string.

Would you please look over these solved cases?
O=C(O)CCSCCC(=O)O = 94
Cc1ccc(Nc2ncccc2C(=O)O)cc1C = 105
CC12CN3CC(C)(CN(C1)C3c1ccc(Cl)cc1Cl)C2=O (configuration not stated) = 95.1

Now consider a different compound.
Consider the compound shown here: `COc1ccc(C(=O)Oc2ccc3c(C)cc(=O)oc3c2C(C)=O)cc1` What is its recorded binding (% of control)? 107

Entry source: PubChem BioAssay
